target: TRPV1 channel (Homo sapiens, UniProt Q8NER1); assay: cell-based; settings: TRPV1 inhibitor control
Sequence (Q8NER1 whole entry): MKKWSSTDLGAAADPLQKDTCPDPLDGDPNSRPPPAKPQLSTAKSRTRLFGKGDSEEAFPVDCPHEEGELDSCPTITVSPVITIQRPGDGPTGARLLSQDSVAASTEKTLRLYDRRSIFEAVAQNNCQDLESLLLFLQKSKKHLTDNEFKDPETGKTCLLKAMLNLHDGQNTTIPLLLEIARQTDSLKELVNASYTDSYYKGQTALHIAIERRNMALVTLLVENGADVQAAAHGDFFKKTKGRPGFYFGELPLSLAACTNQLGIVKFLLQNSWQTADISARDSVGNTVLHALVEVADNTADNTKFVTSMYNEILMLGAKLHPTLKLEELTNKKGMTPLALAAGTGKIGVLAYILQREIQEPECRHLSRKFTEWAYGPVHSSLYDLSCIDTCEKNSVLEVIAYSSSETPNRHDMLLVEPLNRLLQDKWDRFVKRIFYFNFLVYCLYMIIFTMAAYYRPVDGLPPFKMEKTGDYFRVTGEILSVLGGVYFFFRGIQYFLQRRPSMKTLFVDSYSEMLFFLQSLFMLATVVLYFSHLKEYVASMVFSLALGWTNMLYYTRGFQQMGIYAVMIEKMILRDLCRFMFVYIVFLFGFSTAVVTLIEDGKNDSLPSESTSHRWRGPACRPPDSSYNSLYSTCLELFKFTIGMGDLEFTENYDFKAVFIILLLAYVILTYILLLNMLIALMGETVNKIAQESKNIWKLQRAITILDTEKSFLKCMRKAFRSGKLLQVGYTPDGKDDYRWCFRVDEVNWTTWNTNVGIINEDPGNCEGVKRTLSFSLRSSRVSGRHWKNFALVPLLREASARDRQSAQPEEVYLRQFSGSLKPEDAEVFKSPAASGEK
Readout type: IC50 (µM)
Answer with a number only, understood to be in µM.

Fill in: IC50 of Oc1cc2c(cc1O)CN(C(=S)NCCc1ccc(Cl)cc1)CCC2 [capsazepine] is ___
7.3

Value source: paper PMC9848282
